Reference for the values: patent US20090099087A1

- ASSAYED TARGET: porcine trypsin (porcine, UniProt P00761 9-231)
- Sequence (P00761 9-231 limits assumed): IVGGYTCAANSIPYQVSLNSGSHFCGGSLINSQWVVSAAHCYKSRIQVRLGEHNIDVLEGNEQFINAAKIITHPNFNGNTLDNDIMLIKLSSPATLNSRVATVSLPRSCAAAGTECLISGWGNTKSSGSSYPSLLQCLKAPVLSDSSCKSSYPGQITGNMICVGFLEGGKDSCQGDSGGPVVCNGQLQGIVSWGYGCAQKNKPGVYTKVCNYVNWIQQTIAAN
- MEASUREMENT DESCRIPTION: chromogenic (S-2251) amidolytic inhibition assay, trypsin 50 nM
// reported pKi for each item listed
The meaning of pKi here: minus log10 of the concentration in molar units.

Some entries whose results are on file:
binder="wild-type first Kunitz-type domain (KD1) of human TFPI-2, His-tagged, E. coli (other, the monomer was purified; also called wild-type KD1; TFPI-2 KD1; not shown: N-terminal decahistidine-tag leader and enterokinase cleavage site from pET19b) DAAQEPTGNNAEICLLPLDYGPCRALLLRYYYDRYTQSCRQFLYGGCEGNANNFYTWEACDDACWRIEKVPKV" assay_endpoint=pKi numeric_result=7.89
binder="G21D KD1 (other, Point mutant of His-tagged KD1, KD1 numbering; also called G21D (G12D); not shown: N-terminal decahistidine-tag leader and enterokinase cleavage site from pET19b) DAAQEPTGNNAEICLLPLDYDPCRALLLRYYYDRYTQSCRQFLYGGCEGNANNFYTWEACDDACWRIEKVPKV" assay_endpoint=pKi numeric_result=7.38

Please report the measured pKi for R24K KD1 (other, also called R24K (R15K); R24K KD1 polypeptide; not shown: N-terminal extension from the expression vector) DAAQEPTGNNAEICLLPLDYGPCKALLLRYYYDRYTQSCRQFLYGGCEGNANNFYTWEACDDACWRIEKVPKV
8.10
